molecular target: Prostaglandin G/H synthase 2 (Homo sapiens); assay: Inhibitory activity against Prostaglandin G/H synthase 2 in human whole blood assay as LPS induced PGE-2 generation.
Sequence (P35354 whole entry): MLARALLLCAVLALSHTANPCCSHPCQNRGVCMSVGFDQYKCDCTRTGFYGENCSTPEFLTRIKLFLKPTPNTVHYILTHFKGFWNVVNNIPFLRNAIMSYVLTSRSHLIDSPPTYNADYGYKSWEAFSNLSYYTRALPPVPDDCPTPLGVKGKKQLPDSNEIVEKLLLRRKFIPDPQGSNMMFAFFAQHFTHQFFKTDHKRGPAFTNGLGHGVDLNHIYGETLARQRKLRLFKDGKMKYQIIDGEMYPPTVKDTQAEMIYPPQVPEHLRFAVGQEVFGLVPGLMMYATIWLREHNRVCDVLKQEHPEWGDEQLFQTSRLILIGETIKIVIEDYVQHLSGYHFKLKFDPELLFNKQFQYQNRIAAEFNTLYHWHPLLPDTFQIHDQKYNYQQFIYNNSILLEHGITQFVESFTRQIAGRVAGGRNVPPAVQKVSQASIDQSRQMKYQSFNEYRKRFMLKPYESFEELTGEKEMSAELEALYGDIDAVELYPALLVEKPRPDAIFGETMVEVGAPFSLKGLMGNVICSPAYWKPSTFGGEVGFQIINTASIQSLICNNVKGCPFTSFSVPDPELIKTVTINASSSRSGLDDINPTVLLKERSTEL
Measurement Name: IC50

INSERT INTO assay_data (query_smiles, measurement_name, observed) VALUES
  ('CCCCCCCCCCCCCCCc1cccc(OCC)c1CSc1nc2ccc(C)cc2[nH]1', 'IC50', '> 10 µM'),
  ('CCCCCCCCCCCCCCCc1cccc(OCC)c1CSc1nc2ccc(OC(F)F)cc2[nH]1', 'IC50', '> 10 µM'),
  ('CCCCCCCCCCCCCCCc1cccc(OC)c1CSc1nc2cc(OC)ccc2[nH]1', 'IC50', '> 10 µM');
